Target: T1, human IL-18BP (interleukin-18 binding protein, isoform A) (human, UniProt O95998 31-194)
T1 sequence: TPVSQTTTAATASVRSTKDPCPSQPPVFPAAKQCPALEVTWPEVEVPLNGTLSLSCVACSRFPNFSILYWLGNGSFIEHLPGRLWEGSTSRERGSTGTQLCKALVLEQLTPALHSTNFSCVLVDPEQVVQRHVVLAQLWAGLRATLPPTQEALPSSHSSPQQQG
Test: cell-based or functional assay
propertyLabel: EC50 in PBMC Assay 1 (endogenous IL-18BP), IFNγ (nM)
Give the value in nM but do not write nM after it.

Please review the following examples before continuing.
{"columns": ["binder", "numericResult"],
 "data": [
  ["SA308a (antibody, human IgG1, V domains shown) VH: QVQLQESGPGLVKPSQTLSLTCTVSGYSITSDYNAHWIRQPPGKGLEWIGYIHYSGATNYNPSLKSRVTISRDTSKNQFSLKLSSVTAADTAVYYCARNYGSIYVNYFDYWGQGTLVTVSS VL: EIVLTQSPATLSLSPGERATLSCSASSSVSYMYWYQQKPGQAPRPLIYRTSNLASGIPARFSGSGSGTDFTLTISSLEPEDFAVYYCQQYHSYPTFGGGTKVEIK", 7.9],
  ["SA302a (antibody, human IgG1, V domains shown, humanized; human IgG1 (suffix a), kappa) VH: QVQLQESGPGLVKPSQTLSLTCTVSGYSITSDYNAHWIRQPPGKGLEWIGYIHYSGSTNYNPSLKSRVTISRDTSKNQFSLKLSSVTAADTAVYYCARNYGSIYVNYFDYWGQGTLVTVSS VL: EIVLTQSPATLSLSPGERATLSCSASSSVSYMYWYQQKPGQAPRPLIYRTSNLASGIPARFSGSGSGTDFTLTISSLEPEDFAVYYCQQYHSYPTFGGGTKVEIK", 15]
]}

# ---- query binder ----
Input line: Return reported EC50 in PBMC Assay 1 (endogenous IL-18BP), IFNγ; argument: SA313a (antibody, human IgG1, V domains shown, humanized; human IgG1 (suffix a), kappa) VH: QVQLQESGPGLVKPSQTLSLTCTVSGYSITSDYNAHWIRQPPGKGLEWIGYIHYSGSTMYNPSLKSRVTISRDTSKNQFSLKLSSVTAADTAVYYCARNFGSIYVNYFDYWGQGTLVTVSS VL: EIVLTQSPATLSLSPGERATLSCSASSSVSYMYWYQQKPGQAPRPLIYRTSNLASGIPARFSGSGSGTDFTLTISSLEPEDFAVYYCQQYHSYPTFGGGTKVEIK
Output line: 1.2
